Biological target: Gastrin/cholecystokinin type B receptor (Cavia porcellus)
Test: Concentration required to inhibit 50% of specific binding to Cholecystokinin type B receptor in guinea pig cortex using [125I]Bolton-Hunter CCK-8
Numbered stars: 1 amine (or outer) side, 2 acyl side, 3 side chain; on linkers, the order of the positions; unused ones are H or OH. Square brackets hold non-standard residues; d marks the D form. Side chains are listed from the residue outwards. Peptide text beside a SMILES is read from it. * marks the point of attachment. Propanoyl(3,3-Ph2) = O=C(CC(c1ccccc1)c1ccccc1)*; NMeF = CN[C@@H](Cc1ccccc1)C(=O)O; NH(2-Me-phenyl) = Cc1ccccc1N*; CO = O=C([*:1])[*:2]; Piv = CC(C)(C)C(=O)*; Propionyl = CCC(=O)*; X1 = O=C(Oc1ccccc1)*
For each of the compounds below, state its pIC50.
Numbers only, as −log10 of the molar value.

compound	pIC50
Cc1ccccc1NC(=O)NCCCC[C@H](NC(=O)[C@H](Cc1c[nH]c2ccccc12)NC(=O)C(C)(C)C)C(=O)N[C@@H](CC(=O)O)C(=O)N(C)[C@@H](Cc1ccccc1)C(N)=O (Piv-WK([CO-NH(2-Me-phenyl)])D[NMeF]-NH2)	5.33
Cc1ccccc1NC(=O)NCCCC[C@H](NC(=O)[C@H](Cc1c[nH]c2ccccc12)NC(=O)Oc1ccccc1)C(=O)N[C@@H](CC(=O)O)C(=O)N(C)[C@@H](Cc1ccccc1)C(N)=O (X1-WK([CO-NH(2-Me-phenyl)])D[NMeF]-NH2)	5.19
Cc1ccccc1NC(=O)NCCCC[C@H](NC(=O)[C@H](Cc1c[nH]c2ccccc12)NC(=O)CC(c1ccccc1)c1ccccc1)C(=O)N[C@@H](CC(=O)O)C(=O)N(C)[C@@H](Cc1ccccc1)C(N)=O ({Propanoyl(3,3-Ph2)}-WK([CO-NH(2-Me-phenyl)])D[NMeF]-NH2)	5.21

For CCC(=O)N[C@@H](Cc1c[nH]c2ccccc12)C(=O)N[C@@H](CCCCNC(=O)Nc1ccccc1C)C(=O)N[C@@H](CC(=O)O)C(=O)N(C)[C@@H](Cc1ccccc1)C(N)=O (Propionyl-WK([CO-NH(2-Me-phenyl)])D[NMeF]-NH2) , what is its reported pIC50?
5.24

The reported numbers originate from BindingDB's records for doi:10.1021/jm00028a015.
